Hi there, I'd appreciate the recorded inhibition of HGF-induced proliferation of NCI-H441 cells ([3H]thymidine), FIG. 15 for every entry that follows.
# target_under_test: human c-Met receptor (human, UniProt P08581 25-1390)
# Sequence (P08581 25-1390): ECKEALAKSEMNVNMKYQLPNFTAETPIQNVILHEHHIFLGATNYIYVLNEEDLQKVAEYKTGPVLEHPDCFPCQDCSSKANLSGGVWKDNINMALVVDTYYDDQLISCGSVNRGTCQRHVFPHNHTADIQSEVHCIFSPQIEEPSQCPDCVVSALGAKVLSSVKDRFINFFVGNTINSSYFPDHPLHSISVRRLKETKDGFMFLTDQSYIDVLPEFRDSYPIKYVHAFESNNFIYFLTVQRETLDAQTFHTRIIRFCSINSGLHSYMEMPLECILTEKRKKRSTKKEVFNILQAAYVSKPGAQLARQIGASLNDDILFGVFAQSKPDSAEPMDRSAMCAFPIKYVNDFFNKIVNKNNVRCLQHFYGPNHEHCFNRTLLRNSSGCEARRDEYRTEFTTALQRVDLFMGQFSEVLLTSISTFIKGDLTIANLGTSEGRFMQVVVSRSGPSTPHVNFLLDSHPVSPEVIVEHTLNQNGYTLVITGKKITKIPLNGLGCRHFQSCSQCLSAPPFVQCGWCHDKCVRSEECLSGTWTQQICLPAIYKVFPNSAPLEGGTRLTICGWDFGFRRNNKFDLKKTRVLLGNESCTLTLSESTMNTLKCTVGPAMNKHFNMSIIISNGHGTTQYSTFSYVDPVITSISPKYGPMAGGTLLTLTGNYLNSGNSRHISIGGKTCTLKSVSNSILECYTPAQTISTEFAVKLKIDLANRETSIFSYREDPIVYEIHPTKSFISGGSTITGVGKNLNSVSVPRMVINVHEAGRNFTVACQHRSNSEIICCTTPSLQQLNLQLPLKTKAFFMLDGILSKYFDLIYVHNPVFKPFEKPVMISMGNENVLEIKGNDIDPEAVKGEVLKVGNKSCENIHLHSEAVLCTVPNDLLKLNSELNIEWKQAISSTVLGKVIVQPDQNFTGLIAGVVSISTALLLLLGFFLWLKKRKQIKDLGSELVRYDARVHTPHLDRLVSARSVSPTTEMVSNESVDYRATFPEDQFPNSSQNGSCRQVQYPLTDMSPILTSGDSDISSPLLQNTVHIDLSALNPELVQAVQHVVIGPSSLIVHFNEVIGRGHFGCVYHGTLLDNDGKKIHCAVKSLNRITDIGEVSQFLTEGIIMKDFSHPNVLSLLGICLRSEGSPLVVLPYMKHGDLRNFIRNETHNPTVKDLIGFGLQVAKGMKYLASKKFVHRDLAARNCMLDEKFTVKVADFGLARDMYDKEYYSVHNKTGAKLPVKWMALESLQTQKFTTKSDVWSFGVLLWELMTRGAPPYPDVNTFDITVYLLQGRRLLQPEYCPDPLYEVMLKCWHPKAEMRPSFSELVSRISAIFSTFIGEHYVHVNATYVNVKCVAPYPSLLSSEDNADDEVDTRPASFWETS
# test_description: cell-based or functional assay
The figure you give is taken to be in %; do not add the unit.

## Input I have this binder here, murine 224G11 Mab (antibody, V domains shown) VH: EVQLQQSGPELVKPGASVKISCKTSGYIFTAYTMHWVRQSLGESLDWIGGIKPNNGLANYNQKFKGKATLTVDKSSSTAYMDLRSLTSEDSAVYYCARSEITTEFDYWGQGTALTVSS VL: DIVLTQSPASLAVSLGQRATISCRASESVDSYANSFMHWYQQKPGQPPKLLIYRASNLESGIPARFSGSGSRTDFTLTINPVEADDVATYYCQQSKEDPLTFGSGTKLEMKR , and I need its recorded inhibition of HGF-induced proliferation of NCI-H441 cells ([3H]thymidine), FIG. 15.
## Output 74

## Input I have this binder here, [224G11]chim (antibody, human IgG1, V domains shown) VH: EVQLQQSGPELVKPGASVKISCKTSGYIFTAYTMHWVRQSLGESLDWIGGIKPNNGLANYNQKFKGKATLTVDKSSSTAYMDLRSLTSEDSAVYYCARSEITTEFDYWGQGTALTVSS VL: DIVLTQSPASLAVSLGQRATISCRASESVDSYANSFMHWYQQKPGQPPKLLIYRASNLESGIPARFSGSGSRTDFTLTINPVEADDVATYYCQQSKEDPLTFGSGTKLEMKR , and I need its recorded inhibition of HGF-induced proliferation of NCI-H441 cells ([3H]thymidine), FIG. 15.
## Output 33

## Input I have this binder here, [224G11] [TH7 Hz3] (antibody, human IgG1, V domains shown) VH: QVQLVQSGAEVKKPGASVKVSCKASGYIFTAYTMHWVRQAPGQGLEWMGWIKPNNGLANYAQKFQGRVTMTRDTSISTAYMELSRLRSDDTAVYYCARSEITTEFDYWGQGTLVTVSS VL: DIVMTQSPDSLAVSLGERATINCKSSESVDSYANSFLHWYQQKPGQPPKLLIYRASTRESGVPDRFSGSGSGTDFTLTISSLQAEDVAVYYCQQSKEDPLTFGGGTKVEIKR , and I need its recorded inhibition of HGF-induced proliferation of NCI-H441 cells ([3H]thymidine), FIG. 15.
## Output 76

## Input I have this binder here, [224G11] [TH7 Hz1] (antibody, human IgG1, V domains shown) VH: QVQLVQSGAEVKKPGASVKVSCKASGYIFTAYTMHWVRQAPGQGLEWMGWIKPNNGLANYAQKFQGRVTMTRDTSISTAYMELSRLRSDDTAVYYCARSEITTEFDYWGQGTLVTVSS VL: DIVLTQSPDSLAVSLGERATINCKSSESVDSYANSFMHWYQQKPGQPPKLLIYRASTRESGVPDRFSGSGSRTDFTLTISSLQAEDVAVYYCQQSKEDPLTFGGGTKVEIKR , and I need its recorded inhibition of HGF-induced proliferation of NCI-H441 cells ([3H]thymidine), FIG. 15.
## Output 67
